Examples of compounds with documented zone of inhibition at 20 µg/disc follow.
Test system: Vibrio splendidus
Test: Antibacterial disk diffusion method
Assay type: cell-based
Conditions: Vibrio splendidus, at 20 μg/disk, read-out: Inhibitory Zone Diameter V. splendidus
Description: Mariculture is often threatened by harmful algal blooms and pathogenic bacteria. Compounds 1–5 and dankasterone A were assayed for inhibition of the three microalgae Chattonella marina, Heterosigma akashiwo, and Prorocentrum donghaiense, and the results are shown in Table 4. […] In addition, their inhibition against four marine-derived bacterial pathogens including Vibrio anguillarum, Vibrio harveyi, Vibrio parahaemolyticus, and Vibrio splendidus was detected using the disk diffusion method. […]

COMPOUND	zone of inhibition at 20 µg/disc, mm
CC(C)C(C)C=CC(C)C1CCC(=O)C23CC(=O)C4=CC(=NNc5ccccc5C(=O)O)CCC4(C)C2CCC13C (stereo not shown) [Compound 1, Penoxahydrazone A]	0
O=C(N[C@H](CO)[C@H](O)c1ccc([N+](=O)[O-])cc1)C(Cl)Cl [chloramphenicol, reference compound]	23
CC(C)[C@@H](C)/C=C/[C@@H](C)[C@H]1CCC(=O)[C@]23CC(=O)C4=CC(=O)CC[C@]4(C)[C@H]2CC[C@]13C	0
COC(=O)C(Cc1ccc(O)cc1)n1cnc2ccccc2c1=O (stereo not shown)	7.3

###

Tested on: Vibrio parahaemolyticus
Assay: Antibacterial disk diffusion method
Assay type: cell-based
Settings: at 20 μg/disk, read-out: Inhibitory Zone Diameter V. parahaemolyticus
READOUT_NAME: zone of inhibition at 20 µg/disc

COMPOUND	TEST_VALUE
CC(C)[C@@H](C)/C=C/[C@@H](C)[C@H]1CCC(=O)[C@]23CC(=O)C4=CC(=O)CC[C@]4(C)[C@H]2CC[C@]13C [dankasterone A]	> 10 mm
COC(=O)C(Cc1ccc(O)cc1)n1cnc2ccccc2c1=O (stereo not shown) [Compound 4, Penoxazolone A]	> 10 mm
O=C(N[C@H](CO)[C@H](O)c1ccc([N+](=O)[O-])cc1)C(Cl)Cl [chloramphenicol, reference compound]	28 mm
CC(C)C(C)C=CC(C)C1CCC(=O)C23CC(=O)C4=CC(=NNc5ccccc5C(=O)O)CCC4(C)C2CCC13C (stereo not shown) [Compound 1, Penoxahydrazone A]	> 10 mm

###

Examples of molecules with documented LC50 follow.
Test: in vivo
Conditions: in vivo; marine zooplankton Artemia salina

MOLECULE	READING_QUALIFIER	LC50 (µg/mL)
CC(C)[C@@H](C)/C=C/[C@@H](C)[C@H]1CCC(=O)[C@]23CC(=O)C4=CC(=O)CC[C@]4(C)[C@H]2CC[C@]13C [dankasterone A]	=	43
COC(=O)C(Cc1ccc(O)cc1)n1cnc2ccccc2c1=O (stereo not drawn) [Compound 4, Penoxazolone A]	>	100
CC(C)C(C)C=CC(C)C1CCC(=O)C23CC(=O)C4=CC(=NNc5ccccc5C(=O)O)CCC4(C)C2CCC13C (stereo not drawn) [Compound 1, Penoxahydrazone A]	=	58

###

Test system: Vibrio harveyi
Assay: Antibacterial disk diffusion method
Type: cell-based
Settings: at 20 μg/disk, read-out: Inhibitory Zone Diameter V. harveyi
Examples of compounds with documented zone of inhibition at 20 µg/disc follow.
READOUT_NAME: zone of inhibition at 20 µg/disc

COMPOUND	TEST_VALUE
O=C(N[C@H](CO)[C@H](O)c1ccc([N+](=O)[O-])cc1)C(Cl)Cl [chloramphenicol, reference compound]	29 mm
CC(C)[C@@H](C)/C=C/[C@@H](C)[C@H]1CCC(=O)[C@]23CC(=O)C4=CC(=O)CC[C@]4(C)[C@H]2CC[C@]13C [dankasterone A]	> 10 mm
CC(C)C(C)C=CC(C)C1CCC(=O)C23CC(=O)C4=CC(=NNc5ccccc5C(=O)O)CCC4(C)C2CCC13C (stereo not shown) [Compound 1, Penoxahydrazone A]	> 10 mm
COC(=O)C(Cc1ccc(O)cc1)n1cnc2ccccc2c1=O (stereo not shown) [Compound 4, Penoxazolone A]	> 10 mm
